molecular target: T1, Recombinant Human DLL4 (human, UniProt Q9NR61 27-524); experiment: ECL (MSD) binding assay, Fab on immobilised recombinant human DLL4; Fab concentration not given in the table
T1 construct: Bought recombinant human DLL4 (R&D Systems 1506-D4/CF); also called delta-like protein 4; rHuman DLL4
READOUT TYPE: ECL signal
Output spec: single numeric token, no unit.

Recorded ECL signal, per entry:
binder="Fab VH1-46_IGHD6-6*01_IGHJ1*01 S102A/S103P/S104F/H111F N52L/S54T/G56H & L6_IGKJ1*01 S28N/S30D/S31H S52L/A55G (Fab, V domains shown, Fab expressed in E. coli: VH joined to CH1 from Plasmid A (His6 and Flag tags), VL joined to kappa CL from Plasmid C; also called H:APFF LTH & L:NDH LG) VH: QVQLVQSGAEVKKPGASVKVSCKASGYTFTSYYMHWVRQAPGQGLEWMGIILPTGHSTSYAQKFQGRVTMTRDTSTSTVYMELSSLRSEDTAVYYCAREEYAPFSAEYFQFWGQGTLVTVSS VL: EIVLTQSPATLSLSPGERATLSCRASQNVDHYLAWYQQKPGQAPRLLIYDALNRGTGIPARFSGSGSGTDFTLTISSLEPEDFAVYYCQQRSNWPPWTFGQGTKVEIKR" readout_number=9010
binder="Fab VH1-46_IGHD6-6*01_IGHJ1*01 S102A/S103P/S104F/H111F I51A/N52L/S54T/G56H & L6_IGKJ1*01 S28N/S30D/S31H S52L/A55S (Fab, V domains shown, Fab expressed in E. coli: VH joined to CH1 from Plasmid A (His6 and Flag tags), VL joined to kappa CL from Plasmid C; also called H:APFF ALTH & L:NDH LS) VH: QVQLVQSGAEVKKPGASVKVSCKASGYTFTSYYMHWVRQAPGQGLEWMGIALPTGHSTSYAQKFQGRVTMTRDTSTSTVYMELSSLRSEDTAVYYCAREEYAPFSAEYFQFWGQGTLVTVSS VL: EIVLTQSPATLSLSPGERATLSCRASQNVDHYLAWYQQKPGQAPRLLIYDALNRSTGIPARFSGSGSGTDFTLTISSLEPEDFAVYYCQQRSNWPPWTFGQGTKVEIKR" readout_number=3720

Q: ECL signal lookup needed for Fab VH1-46_IGHD6-6*01_IGHJ1*01 S102A/S103P/S104F/H111F I51V/N52L/S54T/G56H & L6_IGKJ1*01 S28N/S30D/S31H (Fab, V domains shown, Fab expressed in E. coli: VH joined to CH1 from Plasmid A (His6 and Flag tags), VL joined to kappa CL from Plasmid C; also called H:APFF VLTH & L:NDH) VH: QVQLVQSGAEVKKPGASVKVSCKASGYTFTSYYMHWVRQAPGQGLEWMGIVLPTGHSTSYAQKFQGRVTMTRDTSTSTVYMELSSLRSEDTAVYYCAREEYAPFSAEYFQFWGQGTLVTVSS VL: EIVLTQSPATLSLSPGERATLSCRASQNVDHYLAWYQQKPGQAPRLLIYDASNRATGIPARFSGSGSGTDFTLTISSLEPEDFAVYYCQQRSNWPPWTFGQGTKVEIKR , thanks.
Ans: 9790

Q: ECL signal lookup needed for Fab VH1-46_IGHD6-6*01_IGHJ1*01 S102A/S103P/S104F/H111F I51A/N52L/S54T/G56H & L6_IGKJ1*01 S28N/S30D/S31H (Fab, V domains shown, Fab expressed in E. coli: VH joined to CH1 from Plasmid A (His6 and Flag tags), VL joined to kappa CL from Plasmid C; also called H:APFF ALTH & L:NDH) VH: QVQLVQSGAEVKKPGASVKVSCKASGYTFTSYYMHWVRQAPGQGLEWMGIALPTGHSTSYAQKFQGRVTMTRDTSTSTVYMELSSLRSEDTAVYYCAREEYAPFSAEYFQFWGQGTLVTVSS VL: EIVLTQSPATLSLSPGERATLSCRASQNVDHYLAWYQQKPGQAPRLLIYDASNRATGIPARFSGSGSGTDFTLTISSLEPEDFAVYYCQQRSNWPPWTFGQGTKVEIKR , thanks.
Ans: 1840
